# System: male Swiss-Webster mice
# testSummary: Rotarod impairment test before MES testing
# Format: in vivo, mouse
# studyConditions: 300 mg/kg p.o., 2 hours
Kindly state # I/# T (impaired/tested) for each of the entries shown.

If you can, please state the reported # I/# T (impaired/tested) value of CC(C)C(C)(C)C(N)=O [Compound JJ] .
0/4

Quick one: CC(C)[C@H](C)C(N)=O [AA (R- enantiomer)]
3/4

Quick one: CC(C)[C@@H](C)C(N)=O [AA (S- enantiomer)]
0/4

Quick one: CC1(C)C[C@@H]1C(N)=O [Compound S]
0/4

Quick one: C[C@H](C(N)=O)C(C)(C)C [Compound MM]
3/4
